Where these numbers come from: paper PMC6599640

Assay: Drug permeability across SMI microtissues
Conditions: human, A-B Papp, Table VIII; line Transport B-A, 10 μM, 2 h, n = 3

{"Molecule": "O=C1NC(c2ccccc2)(c2ccccc2)C(=O)N1COP(=O)(O)O [Fosphenytoin]", "Papp A→B at 2 h, 10 μM": "3.77 ×10⁻⁶ cm/s"}
{"Molecule": "Cc1ncc2n1-c1ccc(Cl)cc1C(c1ccccc1F)=NC2 [Midazolam]", "Papp A→B at 2 h, 10 μM": "13.7 ×10⁻⁶ cm/s"}

* * *

Biological target: BCRP (Homo sapiens, UniProt Q9UNQ0)
Sequence (Q9UNQ0 whole entry): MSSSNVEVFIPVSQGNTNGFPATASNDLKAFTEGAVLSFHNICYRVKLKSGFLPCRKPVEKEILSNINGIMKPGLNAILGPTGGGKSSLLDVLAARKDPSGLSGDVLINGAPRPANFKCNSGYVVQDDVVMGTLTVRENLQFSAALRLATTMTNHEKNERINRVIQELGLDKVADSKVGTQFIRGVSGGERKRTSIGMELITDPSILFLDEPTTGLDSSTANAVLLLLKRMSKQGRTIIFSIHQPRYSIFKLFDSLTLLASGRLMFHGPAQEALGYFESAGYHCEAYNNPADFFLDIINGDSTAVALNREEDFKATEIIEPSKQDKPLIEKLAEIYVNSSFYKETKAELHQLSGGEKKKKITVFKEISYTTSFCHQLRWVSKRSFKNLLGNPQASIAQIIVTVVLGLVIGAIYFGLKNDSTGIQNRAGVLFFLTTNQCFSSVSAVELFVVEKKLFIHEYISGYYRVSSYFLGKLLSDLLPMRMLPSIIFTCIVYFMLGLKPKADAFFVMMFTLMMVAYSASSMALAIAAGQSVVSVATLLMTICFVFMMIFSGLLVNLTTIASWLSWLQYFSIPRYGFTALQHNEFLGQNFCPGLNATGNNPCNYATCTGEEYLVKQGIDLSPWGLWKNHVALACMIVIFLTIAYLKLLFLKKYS
Experiment: in vitro
Details: with Novobiocin 50 uM

{"Molecule": "O=C1CN(/N=C/c2ccc([N+](=O)[O-])o2)C(=O)N1 [Nitrofurantoin]", "Papp B→A at 2 h, 10 μM [×10⁻⁶ cm/s]": 18.9}
